Biological target: Angiotensin-umwandelnde Enzym (ACE) (Oryctolagus cuniculus, UniProt P12822)
Construct: Es wurde ein Kaninchen-Lungengewebe-Präparat; from tissue; host or cells: lung of adult male rabbits
Sequence (P12822 34-1310): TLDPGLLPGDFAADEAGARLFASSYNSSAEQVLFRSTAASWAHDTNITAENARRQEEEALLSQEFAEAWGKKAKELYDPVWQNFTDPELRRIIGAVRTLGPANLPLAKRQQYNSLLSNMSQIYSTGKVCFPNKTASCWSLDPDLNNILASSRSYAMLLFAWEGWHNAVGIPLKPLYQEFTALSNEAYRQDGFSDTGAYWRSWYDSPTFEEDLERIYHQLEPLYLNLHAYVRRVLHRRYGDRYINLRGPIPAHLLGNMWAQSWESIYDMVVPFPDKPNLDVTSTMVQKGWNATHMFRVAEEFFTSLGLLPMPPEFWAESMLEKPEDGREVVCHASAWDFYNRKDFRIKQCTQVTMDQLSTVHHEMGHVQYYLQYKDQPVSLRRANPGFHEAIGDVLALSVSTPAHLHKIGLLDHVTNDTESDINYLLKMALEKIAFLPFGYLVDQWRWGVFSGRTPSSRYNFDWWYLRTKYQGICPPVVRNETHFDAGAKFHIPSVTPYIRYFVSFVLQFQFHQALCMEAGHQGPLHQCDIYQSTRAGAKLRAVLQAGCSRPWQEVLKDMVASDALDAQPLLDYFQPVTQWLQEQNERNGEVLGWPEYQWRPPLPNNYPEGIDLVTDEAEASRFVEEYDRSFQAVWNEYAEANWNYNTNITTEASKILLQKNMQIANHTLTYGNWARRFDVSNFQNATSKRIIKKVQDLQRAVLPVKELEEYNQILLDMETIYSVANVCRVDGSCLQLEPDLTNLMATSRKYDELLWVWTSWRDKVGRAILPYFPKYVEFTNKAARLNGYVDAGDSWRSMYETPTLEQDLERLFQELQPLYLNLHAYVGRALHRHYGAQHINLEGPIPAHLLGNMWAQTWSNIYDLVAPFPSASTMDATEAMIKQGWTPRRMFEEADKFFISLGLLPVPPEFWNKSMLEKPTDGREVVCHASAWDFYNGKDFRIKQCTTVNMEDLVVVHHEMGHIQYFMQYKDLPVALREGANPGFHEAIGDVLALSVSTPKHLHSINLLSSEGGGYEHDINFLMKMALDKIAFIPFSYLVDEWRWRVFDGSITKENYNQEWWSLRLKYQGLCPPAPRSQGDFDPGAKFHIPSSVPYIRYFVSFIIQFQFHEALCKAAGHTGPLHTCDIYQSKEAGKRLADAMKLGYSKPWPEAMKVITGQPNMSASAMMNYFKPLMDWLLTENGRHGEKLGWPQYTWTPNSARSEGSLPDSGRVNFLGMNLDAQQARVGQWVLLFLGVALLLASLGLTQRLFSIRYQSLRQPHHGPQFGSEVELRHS
Experiment: In vitro ACE inhibition (ACEI), rabbit lung tissue preparation, hippuryl-histidyl-leucine substrate, method of Cheung and Cushman
Assay type: biochemical, Kaninchen
Details: ACE from rabbit lung; 30 min at 37 °C; read-out: IC50-Wert
MEASUREMENT_LABEL: IC50 (nM)

O=C(O)CN1C(=O)C(NC(CCc2ccccc2)C(=O)O)CCc2ccccc21 (single isomer, unassigned) [Beispiel 9] : 5.2

I = O=C(O)CN1C(=O)C(NC(CCc2ccccc2)C(=O)O)CCc2ccccc21 (single isomer, unassigned) [Beispiel 8]
II = O=C(O)CN1C(=O)[C@@H](N[C@@H](CCc2ccccc2)C(=O)O)CCc2ccccc21
Query: When the recorded IC50 values are compared, which is smaller: that of I or that of II ? Pick one; state its label.
Reply: II
(II: 1.7 nM, I: 58 nM)
